TCR Mut RLU/WT RLU values for the binders below.
- MEASURED TARGET: T1, KRAS G13D (G13D-RT6) peptide on HLA-DQA1*05:01 / HLA-DQB1*03:01 (human)
- T1 chain: YKLVVVGAGDVGKSAL
- EXPERIMENT: NFAT-luciferase; Jurkat-NFAT-Luc with the TCR and Lovo-DPA0301:DPB0501 cells loaded with G13D-RT6; against wild-type B8.2.4 TCR; full-length, on cells
- CONDITION: chains Valpha:Vbeta
Enter a number only.

The examples below pair each entry with its known result.
| BINDER | NUMERIC VALUE |
| --- | --- |
| B8.2.4 TCR mutant β95Q-G (protein) chain 1: AQKITQTQPGMFVQEKEAVTLDCTYDTSDPSYGLFWYKQPSSGEMIFLIYQGSYDQQNATEGRYSLNFQKARKSANLVISASQLGDSAMYFCAMRERTGTASKLTFGTGTRLQVTL chain 2: DVKVTQSSRYLVKRTGEKVFLECVQDMDHENMFWYRQDPGLGLRLIYFSYDVKMKEKGDIPEGYSVSREKKERFSLILESASTNQTSMYLCASSGTVPPQHFGDGTRLSIL | 1.03 |
| B8.2.4 TCR mutant β95Q-W (protein) chain 1: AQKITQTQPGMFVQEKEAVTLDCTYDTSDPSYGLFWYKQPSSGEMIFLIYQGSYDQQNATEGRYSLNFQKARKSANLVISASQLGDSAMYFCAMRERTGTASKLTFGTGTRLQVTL chain 2: DVKVTQSSRYLVKRTGEKVFLECVQDMDHENMFWYRQDPGLGLRLIYFSYDVKMKEKGDIPEGYSVSREKKERFSLILESASTNQTSMYLCASSWTVPPQHFGDGTRLSIL | 0.88 |
| B8.2.4 TCR mutant β95Q-C (protein) chain 1: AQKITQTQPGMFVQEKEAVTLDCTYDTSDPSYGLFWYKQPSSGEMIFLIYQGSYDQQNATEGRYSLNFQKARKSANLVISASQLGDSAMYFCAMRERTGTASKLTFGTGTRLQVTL chain 2: DVKVTQSSRYLVKRTGEKVFLECVQDMDHENMFWYRQDPGLGLRLIYFSYDVKMKEKGDIPEGYSVSREKKERFSLILESASTNQTSMYLCASSCTVPPQHFGDGTRLSIL | 1.14 |
| B8.2.4 TCR mutant β98P-M (protein) chain 1: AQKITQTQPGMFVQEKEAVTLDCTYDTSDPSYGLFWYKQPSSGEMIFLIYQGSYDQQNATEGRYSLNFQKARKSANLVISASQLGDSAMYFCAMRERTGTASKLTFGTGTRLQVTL chain 2: DVKVTQSSRYLVKRTGEKVFLECVQDMDHENMFWYRQDPGLGLRLIYFSYDVKMKEKGDIPEGYSVSREKKERFSLILESASTNQTSMYLCASSQTVMPQHFGDGTRLSIL | 0.83 |

Consider now this further binder.
QUERY: Can you look up the measured TCR Mut RLU/WT RLU of B8.2.4 TCR mutant β97V-T (protein) chain 1: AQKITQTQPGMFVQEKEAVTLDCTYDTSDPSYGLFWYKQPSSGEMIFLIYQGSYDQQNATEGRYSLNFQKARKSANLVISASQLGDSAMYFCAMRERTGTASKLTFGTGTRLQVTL chain 2: DVKVTQSSRYLVKRTGEKVFLECVQDMDHENMFWYRQDPGLGLRLIYFSYDVKMKEKGDIPEGYSVSREKKERFSLILESASTNQTSMYLCASSQTTPPQHFGDGTRLSIL for me?
RESULT: 0.98
